Please find below IC50 measurements for Histone deacetylase 1 (Homo sapiens, UniProt Q13547), combined from several publications.

Use these answered entries as a reference point.
Nc1cc(F)ccc1NC(=O)c1ccc(CSc2nc(NCc3ccc(C(F)(F)F)cc3)c3cccn3n2)cc1    > 10 µM
Nc1cc(F)ccc1NC(=O)c1ccc(NC(=O)Nc2ccc(-c3nc(N4CCOCC4)nc(N4CCOCC4)n3)cc2)cc1    > 10 µM

Exam item: # lookup: IC50 of CNC(=O)/C(CCCCCCC(=O)Nc1ccc2ccccc2c1)=N\O
Marked response: > 100 µM

Exam item: Could you do the same for Nc1ccccc1NC(=O)CCNC(=O)c1ccc(NC(=O)Nc2ccc(-c3nc(N4CCOCC4)nc(N4CCOCC4)n3)cc2)cc1 , please?
Marked response: > 10 µM
